- PROCEDURE_SUMMARY: NCI Yeast Anticancer Drug Screen. Data for the cln2 rad14 strain (AID 165);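 further: 0% = growth equal to vehicle treated cultures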
- MEASUREMENT_CONDITIONS: S. cerevisiae cln2 rad14 strain, at 50.0 µM, stronger effect = higher value
Compounds without any hit were thinned out: in the full panel of roughly 79,000, 15% have a hit.
For each of the molecules below, state its growth inhibition.
Give bare numbers, in %.

Look over these answered cases.
Check the records and state growth inhibition for CCOC(=O)c1cc2c(nc1NCc1ccccc1)C(=O)CCCC2 10.3

For the molecule CC1CCc2cc(Br)ccc2N1N (stereo not drawn) , give its measured growth inhibition value. 9.8

Respond only with growth inhibition recorded for O=C1c2ccccc2-c2ccc3c4ccc5c6c(ccc(c7ccc1c2c73)c64)-c1ccccc1C5=O -30.4

Give the reported growth inhibition for this molecule. Oc1ccc2ccccc2c1 -21.4

Fill in reported growth inhibition for this entry: NC(=O)NC(=O)c1ccco1 17.1

Return reported growth inhibition. Input molecule: O=C(Nc1cccc(C(F)(F)F)c1)C(=O)C(C(=O)c1ccc(Cl)c(Cl)c1)C1OC(=O)c2ccccc21 (stereo not drawn) 63.6

Please report the measured growth inhibition for CC[N+](C)(CC)CCOc1ccc(Cc2nc3c([nH]2)c(=O)n(C)c(=O)n3C)cc1 -4.4

Note down growth inhibition recorded for c1ccc(C(c2ccccc2)c2ccccc2)cc1 -10.3

Would you mind listing growth inhibition for each of the following molecules?
1. NCc1ccc(C(=O)O)cc1
2. CCCCCCCCCCCCCCOc1ccc(OCCCCCCCCC)cc1
3. COC(=O)c1[nH]c(C)c(C(=O)OC)c1C

1: -68.7; 2: -13.8; 3: -5

---

- PROCEDURE_SUMMARY: NCI Yeast Anticancer Drug Screen. Data for the mlh1 rad18 strain (AID 175)
- MEASUREMENT_CONDITIONS: S. cerevisiae mlh1 rad18 strain growth inhibition; at 50.0 µM
About 79,000 compounds went through this panel and 15% of them were active in at least one assay; those are over-represented in the sample as a whole. Calls of active or inactive are those of the source. Cut-off read from the data, not from the text of the source: active = growth inhibition above about 70%; inactive = the rest. Where a SMILES comes first, the peptide text is derived from it. [ ]: non-standard residue; d: D form. The star is where a group is joined. ξ: configuration not given here. Boc = CC(C)(C)OC(=O)*; ξV = CC(C)C(N)C(=O)O; OBn = c1ccc(CO*)cc1
// classify into Y (active), N (inactive)

Would you mind telling me which call this test gave O=C1OC(C(Cl)(Cl)Cl)Nc2ccccc21 (stereo not given) ? N

***
For this molecule, state the assay outcome: NC1C(O)C(N)C(O)C(O)C1O (stereo not given) N

State the result this test recorded for NC(=O)c1nc(N)nc(N)c1[N+](=O)[O-] . N

Can you look up the reported call for CCCCCCCCCCCCCCCCCCCCc1ccccc1 for me? N

Any idea what this test logged for CC1(C)CCC2(C)CC=C3C(C)(CCC4C3(C)CCC3C(C)(C)C(O)CCC43C)C2C1 (stereo not given) ? N

Which outcome was entered for the molecule CC(C)C(NC(=O)OC(C)(C)C)C(=O)NCC(=O)OCc1ccccc1 (stereo not given) (Boc-[ξV]-Gly-OBn) in this test? N

---

- PROCEDURE_SUMMARY: NCI Yeast Anticancer Drug Screen. Data for the cln2 rad14 strain (AID 165);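 further: 0% = growth equal to vehicle treated cultures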
- MEASUREMENT_CONDITIONS: S. cerevisiae cln2 rad14 strain, at 50.0 µM, stronger effect = higher value
This is part of a sample that, as a whole, favours compounds with a hit. Of some 79,000 tested, about 15% had one in any assay.
Class field: derived from growth inhibition; ranges class 0 (below -10%), class 1 (-10% to below 10%), class 2 (10% or more)

Answered examples (3):
Exercise: read the entry NC(=O)C(CNCc1ccccc1)NCc1ccccc1 (configuration not stated) and state which class it falls under. class 1

Looking at CC(CCC(=O)O)[C@H]1CCC2[C@H]3C(CC(=O)[C@@]21C)[C@@]1(C)CCC(O)C[C@H]1C[C@@H]3O (some centres not stated) , which class would you pick? class 0

Note: place this compound into its band. Item: CN(C)CC1CCc2c(n(C)c3ccccc23)C1=O (configuration not stated) class 0

***
Please classify: O=C1CN(N2CCOCC2)CC(=O)N2CCCCN12 class 2

Input CSCCC(N)=O ; output its category class 1

Assign a bin to CC(C)[C@@H]1CC[C@@H](C)C[C@H]1OC(=O)c1c2n(c3ccccc13)C[C@H]1OC(C)(C)O[C@@H]21 class 2

Consider CSC1=NNC(c2ccccc2)=C(c2ccccc2)S1 . To which growth inhibition class does it belong? class 0

Textbook exercise: identify the category of the compound given here, CCC1(CCC#N)CCC(N)=CC1=O (configuration not stated) , according to its measured value. class 0

Band assignment needed for O=C(N/C(=C\c1ccccc1)C(=O)N1CCNCC1)c1ccccc1 please. class 0

Into which category would you place CC1(C)C(=O)/C=C\C(=O)C(C)(C)C(=O)/C=C\C(=O)C(C)(C)C2=CC=C(O2)C(C)(C)C(=O)/C=C\C1=O ? class 2

Which band does CCN(CC)CCNc1cc2ccccc2c2sc3ccccc3c(=O)c12 fall in? class 2

# classify by growth inhibition band: O=C(Nc1ccc(N=C=S)cc1Cl)c1ccc2ccccc2c1O class 2

Input CNC(=O)OCC1=CC(=O)C=C(OC)C1=O ; output its category class 2

// return the class label for C[C@@H]1C[C@H](C)OC(CO)O1 (some centres not stated) (tested in a mixture with another compound) class 2

Which category does the recorded growth inhibition put OCC#C[C@@H]1CC[C@H]1C#CCO in? class 1

Using the reported growth inhibition, which band applies to S=c1nc[nH]c2nc(Cl)[nH]c12 ? class 1

Class (by measured growth inhibition) for CCn1c2ccc([N+](=O)[O-])cc2c2c([N+](=O)[O-])c(NC=O)ccc21 class 2

Form field 'band' for Nc1nc(N)c2nc(-c3ccc([N+](=O)[O-])cc3)c(=O)[nH]c2n1 class 0

Which class does CCCCCCCCCC[CH2][Sn]([CH2]CCCCCCCCCC)([CH2]CCCCCCCCCC)[CH2]CCCCCCCCCC fall in? class 0

Dear colleague, I would appreciate it if you could identify the bin for Cc1ccc(S(=O)(=O)N/N=c2/sc3ccccc3n2C)cc1 and reply at your convenience. class 1

Kindly identify the class of CC(=O)CC(C)=Nc1ccc([N+](=O)[O-])cc1 . class 0

---

- PROCEDURE_SUMMARY: NCI Yeast Anticancer Drug Screen. Data for the rad50 strain (AID 155);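 further: 0% = growth of vehicle-only cultures of the same strain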
- MEASUREMENT_CONDITIONS: S. cerevisiae rad50 strain growth inhibition; at 50.0 µM; stronger effect = higher value
About 79,000 compounds went through this panel and 15% of them were active in at least one assay; those are over-represented in the sample as a whole. Where a SMILES comes first, the peptide text is derived from it. [ ]: non-standard residue; d: D form. The star is where a group is joined. ξ: configuration not given here. Cbz = O=C(OCc1ccccc1)*; ξNva = CCCC(N)C(=O)O
Would you please tag the item Met when its growth inhibition is -10% or above, and Not met when it is below?

The examples below pair each entry with its known result.
Is it the case that CC(=O)c1ccc(C(=O)c2cccnc2)cc1 has growth inhibition reaching or exceeding -10%? Not met

Please indicate if the recorded growth inhibition for O=C(c1nc2ccc(Cl)cc2[nH]c1=O)C(O)c1ccc2c(c1)OCO2 (stereo not given) meets or exceeds -10%. Not met

State whether the measured growth inhibition reaches -10%, counting equality as reaching it, for COP(=O)(OC)/C(=C\c1cn(C(c2ccccc2)(c2ccccc2)c2ccccc2)cn1)NC(C)=O Met

Others:
Decide: is the reported value of growth inhibition for CCCC(NC(=O)OCc1ccccc1)C(=O)NCC(=O)NCC(=O)OC (stereo not drawn) (Cbz-[ξNva]-Gly-Gly-OMe) equal to or greater than -10%? Not met

Test whether the compound Oc1ccc(C=NCCN=Cc2ccc(O)cc2)cc1 records growth inhibition of -10% or higher. Met

---

- PROCEDURE_SUMMARY: NCI Yeast Anticancer Drug Screen. Data for the rad50 strain (AID 155);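 further: 0% = growth of vehicle-only cultures of the same strain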
- MEASUREMENT_CONDITIONS: S. cerevisiae rad50 strain growth inhibition; at 50.0 µM; stronger effect = higher value
Compounds without any hit were thinned out: in the full panel of roughly 79,000, 15% have a hit. Where a SMILES comes first, the peptide text is derived from it. The star is where a group is joined. Cbz = O=C(OCc1ccccc1)*
Task for the reader: assign each of the following compounds its reported growth inhibition.
Numbers only, in %.

Give the reported growth inhibition for this compound. O=C(Nc1ccccc1-c1ccccc1)c1cccnc1 2.65

Please supply the value of reported growth inhibition for the item CCC1(C)NC(=O)OC1=O (stereo unspecified) 2.25

Look up growth inhibition of N/N=C/c1cccn1-c1ccccc1Cl and report it. 33.8

Provide only the value of recorded growth inhibition for NC1=C(Br)C(=O)c2[nH]c(=O)[nH]c(=O)c2C1=O 18.8

Note growth inhibition for the compound shown: CC(=O)CC(=O)Nc1ccc(C(=O)c2ccccc2)cc1 8.35

Answer with the recorded growth inhibition for the compound listed here: CCOC(OCC)n1ncnc1NC(=S)NCc1ccccc1 -15.4

Batch request: growth inhibition per item, same order as input.
1. CCOC(=O)C1=C(SC)SC(C(=O)OCC)C2C=C(C)C=CN12 (stereo unspecified)
2. O=C(NCCCCCCNC(=O)c1cc(-c2ccccc2)nc2ccccc12)c1cc(-c2ccccc2)nc2ccccc12
3. CC(Sc1nc2ccccc2c(=O)[nH]1)c1ccccc1 (stereo unspecified)

[-5.2, -33, 3.1]

Value sought for every listed compound: growth inhibition.
1. CC(C)CC(=O)OC1=C(O)C(=O)C(OC(=O)CC(C)C)=C(O)C1=O
2. CSCCC(NC(=O)C(Cc1ccccc1)NC(=O)OCc1ccccc1)C(=O)O (stereo not drawn) (Cbz-Phe-Met-OH; configuration not given here)

-5.45
5.1
